- Test system: CDKL3;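 further: KINOMEscan kinase panel screen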
- experimental_context: concentration: 1 μM, replicates: in singlicate; n = 1
Mark Not met for %Inh values under 3%, and Met for everything at or above.

Nc1ncnc2c1ncn2-c1cccc2ccccc12 | Met
COC(=O)c1c(-c2ccccc2)c2cc(Br)ccc2c(=O)n1Cc1ccc(NC(=O)CCC(=O)O)cc1 | Met
O=C(NCCNc1ccnc(Nc2ccc(F)cc2)n1)Nc1ccc2c(c1)OCO2 | Not met
Nc1n[nH]c2nnc(-c3ccccc3)c(-c3ccccc3)c12 | Not met

Could you please find out whether COc1cc(OC)cc(-c2cc3cnc(N)nc3nc2NC(=O)NC(C)(C)C)c1 has %Inh that meets 3% or exceeds it? Not met

Could you please find out whether COc1cc2nccc(Nc3ccc(OCc4ccc(NC(C)=O)cc4)cc3)c2cc1OC.Cl has %Inh that meets 3% or exceeds it? Met

Could you please find out whether Fc1cccc(CSc2nnc(-c3ccc4c(c3)CCO4)o2)c1 has %Inh that meets 3% or exceeds it? Not met

Could you please find out whether FC(F)(F)c1ccc(-c2ncn(CCCN3CCOCC3)c2-c2ccncc2)cc1 has %Inh that meets 3% or exceeds it? Not met
